- Read-out: Monocyte Chemoattractant Protein-1 (MCP1), CCL2 (gene 6347)
- protocol: BSK_3C_MCP1: BioMAP Diversity Plus: 3C Assay for Monocyte Chemoattractant Protein-1 (MCP1) Biomarker Activity (AID 2283017)
- experimental.context: primary human endothelial cells (HUVEC); actives raise or lower the signal
Activity calls are given as the source filed them. Rule for the calls: active = hit-call score of the fitted dose curve at least 0.9, where 1 is the maximum; inactive = score below 0.9.
Labels: YES for active, NO for inactive

mol.smiles: CCN(CC)CCO
group.label: NO
--
mol.smiles: O=C(N[C@H](c1ccccc1)[C@@H]1CN2CCC1CC2)c1c(Cl)ccc(C(F)(F)F)c1Cl
group.label: YES
--
mol.smiles: O=C1CCCO1
group.label: NO

* * *

- Test system: SRD5A2 (gene 6716)
- protocol: CCTE_Deisenroth_5AR_NBTE_ratio: CCTE's 5alpha-reductase NanoBRET Target Engagement Assay - Ratio, Deisenroth Lab (AID 2284322)
- experimental.context: actives raise or lower the signal
Calls of active or inactive are those of the source. Rule for the calls: active = hit-call score of the fitted dose curve at least 0.9, where 1 is the maximum; inactive = score below 0.9.
quantity.measured: AC50

mol.smiles: [Cl-].[Cl-].[Hg+2]
quantity.measured: AC50
measurement: 75.4 µM (active)
//
mol.smiles: C[C@]12C=CC3=C4CCC(=O)C=C4CC[C@H]3[C@@H]1CC[C@@H]2O
quantity.measured: AC50
measurement: inactive
//
mol.smiles: Nc1ccc(N=Nc2ccccc2)cc1
quantity.measured: AC50
measurement: 50 µM (active)
//
mol.smiles: c1ccc2c(c1)-c1cccc3cccc-2c13
quantity.measured: AC50
measurement: inactive
//
mol.smiles: Cc1cc(N=Nc2ccccc2C)ccc1N
quantity.measured: AC50
measurement: 50 µM (active)
//
mol.smiles: CC(C)(O)c1cnn2c(-c3ccc(F)c(-c4c(F)cccc4C#N)c3)cnc2n1
quantity.measured: AC50
measurement: 13.5 µM (active)

* * *

- Read-out: Monokine induced gamma interferon (MIG), CXCL9 (gene 4283)
- protocol: BSK_SAg_MIG: BioMAP Diversity Plus: SAg Assay for Monokine induced gamma interferon (MIG) Biomarker Activity (AID 2283092)
- experimental.context: primary human HUVEC with PBMC; actives raise or lower the signal
The source made the active and inactive calls. Rule for the calls: active = hit-call score of the fitted dose curve at least 0.9, where 1 is the maximum; inactive = score below 0.9.
Labels: YES = active, NO = inactive

compound: CCC12COCN1COC2
group.label: NO
--
compound: O=[N+]([O-])C(Br)(CO)CO
group.label: YES
--
compound: CCCCCCCCn1sccc1=O
group.label: YES
--
compound: Nc1ccc(Oc2ccc(N)cc2)cc1
group.label: NO
--
compound: CCCCOC(=O)c1ccccc1C(=O)OCc1ccccc1
group.label: NO
--
compound: CC(C)COC(=O)c1ccccc1C(=O)OCC(C)C
group.label: NO
--
compound: OCCCBr
group.label: NO
--
compound: COc1cc(C=O)cc2c1[C@H](COC(N)=O)[C@]1(OC(C)=O)ON2C[C@H]2[C@@H]1N2C(C)=O
group.label: YES
--
compound: Nc1ccc([N+](=O)[O-])cc1
group.label: NO
--
compound: CS(=O)(=O)NC(=O)c1cc(Oc2ccc(C(F)(F)F)cc2Cl)ccc1[N+](=O)[O-]
group.label: NO
--
compound: CN(C)[C@@H]1C(=O)C(C(N)=O)=C(O)[C@@]2(O)C(=O)C3=C(O)c4c(O)cccc4[C@@](C)(O)[C@H]3C[C@@H]12
group.label: NO
--
compound: C[C@]12C=CC3=C4CCC(=O)C=C4CC[C@H]3[C@@H]1CC[C@@H]2O
group.label: NO
--
compound: CC(C)(C)OOC(=O)c1ccccc1
group.label: NO
--
compound: CNC(=O)Oc1cccc2c1OC(C)(C)C2
group.label: NO
--
compound: OCCCl
group.label: NO
--
compound: Nc1ccc(Cl)cc1N
group.label: NO
--
compound: Nc1cc(Cl)cc(C(=O)O)c1Cl
group.label: NO
--
compound: CO[C@@H]1[C@H](OC(=O)NC(=O)CCl)CC[C@]2(CO2)[C@H]1[C@@]1(C)O[C@@H]1CC=C(C)C
group.label: NO
--
compound: CCN(CC)CCO
group.label: NO
--
compound: c1ccc(NNc2ccccc2)cc1
group.label: NO
--
compound: Oc1ccccc1Cl
group.label: NO
--
compound: Cn1cc(-c2ccccc2)c(=O)c(-c2cccc(C(F)(F)F)c2)c1
group.label: NO
--
compound: Clc1ccc(C(c2ccc(Cl)cc2)C(Cl)Cl)cc1
group.label: YES
--
compound: CN(C)c1ccccc1
group.label: NO
--
compound: Cc1ccc(N)cc1
group.label: NO
--
compound: CCCCC(CC)COC(=O)c1ccc(C(=O)OCC(CC)CCCC)c(C(=O)OCC(CC)CCCC)c1 (configuration not stated)
group.label: NO
--
compound: CN(C)c1ccc(C(=O)c2ccc(N(C)C)cc2)cc1
group.label: NO

* * *

- protocol: CEETOX_H295R_TESTO: CeeTox H295R High-throughput Steroidogenesis Assay for Testosterone (TESTO) (AID 2283457)
- experimental.context: actives raise or lower the signal
Active and inactive are the calls of the source. Rule for the calls: active = hit-call score of the fitted dose curve at least 0.9, where 1 is the maximum; inactive = score below 0.9.
Labels: TRUE (active), FALSE (inactive)

mol.smiles: CC(C)N(Cc1ccccc1)C(=O)C(C)(C)C
group.label: FALSE
//
mol.smiles: CNC(=O)Oc1cccc2c1OC(C)(C)C2
group.label: FALSE
//
mol.smiles: O=C(Nc1ccccc1)c1ccccc1I
group.label: FALSE
//
mol.smiles: C[C@]12C=CC3=C4CCC(=O)C=C4CC[C@H]3[C@@H]1CC[C@@H]2O
group.label: TRUE
//
mol.smiles: Cc1cc(N=Nc2ccccc2C)ccc1N
group.label: FALSE
//
mol.smiles: Nc1ccc(Cl)cc1N
group.label: FALSE

* * *

- target: Muscarinic acetylcholine receptor M1 (Homo sapiens)
- protocol: NVS_GPCR_hM1: NovaScreen (NVS) G Protein-Coupled Receptor Assay for human Muscarinic, M1 Receptor (AID 2283270)
Results filed as inconclusive are left out. Calls of active or inactive are those of the source. Rule for the calls: active = hit-call score of the fitted dose curve at least 0.9, where 1 is the maximum; inconclusive = response in the unintended direction; inactive = score below 0.9.
Labels: active, inactive

mol.smiles: CCOC(=O)[C@]1(c2ccccc2)Oc2ccccc2[C@@H]1N
group.label: active

mol.smiles: O=C(Oc1ccc(Br)cc1)N1CCN2CCC1CC2
group.label: active

mol.smiles: CCC[CH2][Sn]([Cl])([CH2]CCC)[CH2]CCC
group.label: active

mol.smiles: O=C(N[C@H](c1ccccc1)[C@@H]1CN2CCC1CC2)c1c(Cl)ccc(C(F)(F)F)c1Cl
group.label: inactive

mol.smiles: [Cl-].[Cl-].[Hg+2]
group.label: active

* * *

- protocol: APR_HepG2_CellLoss_24hr: Apredica 24-hour HepG2 Assay for Cell Loss (AID 2282908);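 for AC50: fit in both directions so a hit may be cell loss or gain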
- experimental.context: high-content imaging
The source made the active and inactive calls. The calls were made as follows: active = hit-call score of the fitted dose curve at least 0.9, where 1 is the maximum; inactive = score below 0.9.
quantity.measured: AC50

compound: Clc1ccc(Cl)c(Cl)c1
measurement: inactive

compound: c1ccc2c(c1)-c1cccc3cccc-2c13
measurement: 85.7 µM (active)

compound: OCCCl
measurement: inactive

compound: Nc1ccc([N+](=O)[O-])cc1
measurement: inactive

compound: CCCCCCCCCCCCCN1CC(C)OC(C)C1 (stereo not drawn)
measurement: 91.8 µM (active)

compound: c1ccc(C2CO2)cc1 (stereo not drawn)
measurement: inactive

compound: CNC(=O)Oc1cccc2c1OC(C)(C)C2
measurement: inactive

compound: Cc1ccc([N+](=O)[O-])cc1
measurement: inactive

compound: Clc1ccc(C(c2ccc(Cl)cc2)C(Cl)(Cl)Cl)cc1
measurement: 57.9 µM (active)

compound: COc1cc(C=O)cc2c1[C@H](COC(N)=O)[C@]1(OC(C)=O)ON2C[C@H]2[C@@H]1N2C(C)=O
measurement: inactive

compound: ClC1=C(Cl)[C@]2(Cl)[C@H]3[C@H]([C@@H]4C=C[C@H]3C4)[C@@]1(Cl)C2(Cl)Cl
measurement: 46.5 µM (active)

compound: CC(C)(OOC(C)(C)c1ccccc1)c1ccccc1
measurement: 69.6 µM (active)

compound: CCCCCOC(=O)c1ccccc1C(=O)OCCCCC
measurement: inactive

* * *

- target: human Peroxisome Proliferator-activated Receptor alpha (PPARa), PPARA (gene 5465) (UniProt Q07869)
- Sequence (Q07869 whole entry, looked up): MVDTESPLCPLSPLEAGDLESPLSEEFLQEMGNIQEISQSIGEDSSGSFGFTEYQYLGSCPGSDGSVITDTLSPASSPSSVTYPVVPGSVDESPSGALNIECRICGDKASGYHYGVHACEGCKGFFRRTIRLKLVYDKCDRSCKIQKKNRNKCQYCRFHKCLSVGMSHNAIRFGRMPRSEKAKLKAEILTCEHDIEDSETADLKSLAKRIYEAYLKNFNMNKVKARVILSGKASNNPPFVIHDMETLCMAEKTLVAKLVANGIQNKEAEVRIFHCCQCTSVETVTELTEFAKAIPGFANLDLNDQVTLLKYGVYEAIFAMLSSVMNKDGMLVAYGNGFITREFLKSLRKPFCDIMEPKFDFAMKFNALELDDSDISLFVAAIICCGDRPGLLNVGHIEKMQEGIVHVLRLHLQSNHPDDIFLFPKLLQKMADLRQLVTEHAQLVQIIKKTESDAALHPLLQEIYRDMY
- protocol: NVS_NR_hPPARa: NovaScreen (NVS) Nuclear Receptor Binding Assay for human Peroxisome Proliferator-activated Receptor alpha (PPARa) (AID 2283359);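 note: activity means loss of TR-FRET signal versus DMSO baseline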
- Procedure: NVS_NR_hPPARa is a biochemical, single-readout assay that uses extracted gene-proteins in a cell-free assay. Measurements were taken 1 hour after chemical dosing in a 384-well plate.NVS_NR_hPPARa is one of one assay component(s) measured or calculated from the NVS_NR_hPPARa assay. […] This assay endpoint, NVS_NR_hPPARa, was analyzed in the positive analysis fitting direction relative to DMSO as the negative control and baseline of activity. […]
Results filed as inconclusive are left out. Calls of active or inactive are those of the source. Rule for the calls: active = hit-call score of the fitted dose curve at least 0.9, where 1 is the maximum; inconclusive = response in the unintended direction; inactive = score below 0.9.
Labels: true (active), false (inactive)

mol.smiles: CC(C)COC(=O)c1ccccc1C(=O)OCC(C)C
group.label: false

mol.smiles: CCC[CH2][Sn]([Cl])([CH2]CCC)[CH2]CCC
group.label: true

mol.smiles: CC(C)(C)OOC(=O)c1ccccc1
group.label: false

mol.smiles: CCOC(=O)[C@]1(c2ccccc2)Oc2ccccc2[C@@H]1N
group.label: false

mol.smiles: Clc1ccc(C(c2ccc(Cl)cc2)C(Cl)Cl)cc1
group.label: false

mol.smiles: O=[N+]([O-])C(Br)(CO)CO
group.label: false

mol.smiles: Cc1cc(N=Nc2ccccc2C)ccc1N
group.label: false

mol.smiles: CCCCOC(=O)c1ccccc1C(=O)OCc1ccccc1
group.label: false

mol.smiles: c1ccc(NNc2ccccc2)cc1
group.label: false

Sourced from PubChem BioAssay (EPA / NIEHS)
